Tested on: A498 renal
ASSAY_REMARKS: NCI tumour cell line growth inhibition, 48 h
OBSERVATION_TYPE: TGI

Lab note: measured TGI of COc1ccc(NC(=O)c2cccc(C3CCc4c(cc(OC)c(OC)c4OC)O3)c2)cc1 (centres undefined) was 5.7 µM

Lab note: measured TGI of "CCOC(=O)c1nc2cc(F)cc(F)c2[nH]c1=O" was > 100 µM

Lab note: measured TGI of CC(C)(C)OC(=O)N1Cc2cc3ccccc3nc2C1CO (centres undefined) was > 100 µM

Lab note: measured TGI of "CCOc1nc2sc3c(c2c(=O)n1CCSSCCn1c(OCC)nc2sc4c(c2c1=O)CCCC4)CCCC3" was > 100 µM

Lab note: measured TGI of "COC(=O)/C(C#N)=C/c1cc(C(C)(C)C)c(O)c(C(C)(C)C)c1" was 8.37 µM

Lab note: measured TGI of "O=C(c1ccc(Nc2nccc(NCCCCNc3ccnc4cc(Cl)ccc34)n2)cc1)N1CCCCC1" was 6.22 µM

Lab note: measured TGI of CC1OC(CC2C=CCc3c(O)c4c(c(O)c32)C(=O)c2ccccc2C4=O)CC(NC(=O)C(F)(F)F)C1O (centres undefined) was 16.5 µM

Lab note: measured TGI of "NS(=O)(=O)c1cc(C(=O)O)c(Cl)c([N+](=O)[O-])c1Cl" was > 100 µM

Lab note: measured TGI of "CCC(=O)CCC1=Nc2nnc(CCCCc3nnc4n3C(=O)C(CCC(=O)CC)=N4)n2C1=O" was > 100 µM

Lab note: measured TGI of CC(=O)O[C@H]1CC[C@]2(C)C3C(=O)C[C@]4(C)[C@@H](C(C)CCC(=O)O)CC[C@@]4(C)[C@@H]3CC[C@H]2C1(C)C (some centres undefined) was > 50 µM

Lab note: measured TGI of Cc1ccc2c(c1)CC1(C2)Cc2ccc(C)cc2C1=O (centres undefined) was > 100 µM

Lab note: measured TGI of Cc1ccc(CN2CCN(Cc3ccc(C)o3)C(C)C2)o1 (centres undefined) was > 100 µM

Lab note: measured TGI of COc1ccc(NC(/C(C(=O)C(=O)/C=C(\O)c2ccccc2)=C(\O)c2ccccc2)c2ccc(OC)cc2)cc1 (centres undefined) was > 100 µM

Lab note: measured TGI of COC(=O)C(=O)C(C(C)=O)C(=O)C(=O)Nc1ccc(C)cc1C (centres undefined) was > 100 µM

Lab note: measured TGI of "COc1cccc(-c2nn(-c3ccccc3)cc2-c2ccnc(NCCCNS(=O)(=O)c3ccc(C(F)(F)F)cc3)c2)c1" was > 100 µM

Lab note: measured TGI of COc1cc(NCCC2CCCCN2)c2ncccc2c1OC (centres undefined) was 41.8 µM

Lab note: measured TGI of CCC(C)C(=O)OC1CCC=C2C=CC(C)C(CCC3CC(O)CC(=O)O3)C21 (centres undefined) was > 66 µM

Lab note: measured TGI of "CCOC(=O)c1ccc(N(CCOS(=O)(=O)c2ccc(C)cc2)CCOS(=O)(=O)c2ccc(C)cc2)cc1" was > 100 µM

Lab note: measured TGI of C/C(=C\CC/C=C(\C)CC/C=C(\C)CCC1SC1(C)C)CC/C=C(\C)CCC1OC1(C)C (centres undefined) was > 100 µM

Lab note: measured TGI of "c1ccc(/C(=N\Nc2nc3ccccc3s2)c2ccccn2)cc1" was 70.1 µM

Lab note: measured TGI of "COc1ccc2c(c1)C(=O)c1c-2n(CCCCl)c(=O)c2cc(N)ccc12" was > 100 µM

Lab note: measured TGI of COC1C(=O)N(SC)C1c1ccccc1Cl (centres undefined) was > 100 µM

Lab note: measured TGI of "Cc1ccc(O)c(C(c2cc(C)ccc2O)c2cc([N+](=O)[O-])ccc2O)c1" was 39.5 µM

Lab note: measured TGI of "CCOC(=O)c1csc(-c2cn(C)c3c2C(=O)C(OC)=CC3=O)n1" was 73.1 µM

Lab note: measured TGI of O=c1[nH]c(=O)n(C2OC(CO)C(O)C2O)cc1F (centres undefined) was 5.61 µM

Lab note: measured TGI of "CC1(C)CN(CCNc2nccc(-c3c(-c4cccc(O)c4)nc4sccn34)n2)S(=O)(=O)N1" was 19.7 µM

Lab note: measured TGI of "c1cc2c3ccsc3c3sccc3c2s1" was > 100 µM

Lab note: measured TGI of "Cc1cn2c(/C=C3\C(=O)N(C)c4ccc(Cl)cc43)c(C)nc2s1" was > 100 µM

Lab note: measured TGI of "Nc1ncnc2c1ncn2CCCCC(=O)O" was > 100 µM

Lab note: measured TGI of "C/C=C(\C)C(=O)O[C@@H]1C=CC(=O)O[C@H]1CNC(=O)[C@H](C)O" was 53 µM

Lab note: measured TGI of COC1OC(Cn2cc([N+](=O)[O-])nc2C)C(O)C(O)C1O (centres undefined) was > 100 µM

Lab note: measured TGI of COc1ccc(C2=NN(C(=O)c3ccc(Cl)cc3)C(O)(c3cc(F)c(Cl)cc3Cl)C2)cc1 (centres undefined) was > 100 µM

Lab note: measured TGI of "COc1cccc(CCn2c(N)c(C#N)c3ccc([N+](=O)[O-])cc3c2=O)c1" was > 100 µM

Lab note: measured TGI of CCC(C(=O)[C@@H](C)[C@@H](O)[C@H](C)[C@@H]1O[C@@H]([C@@H](CC)C(=O)ONC(=O)c2ccccc2)CC[C@@H]1C)[C@H]1O[C@]2(C=CC(=O)[C@]3(CC[C@@](C)([C@H]4CC[C@](O)(CC)[C@H](C)O4)O3)O2)[C@H](C)C[C@@H]1C (some centres undefined) was 0.731 µM

Lab note: measured TGI of "COc1cc(/C=N/n2c(C)n[nH]c2=O)cc(OC)c1OC" was > 100 µM

Lab note: measured TGI of "CCOC(=O)CCc1ccc(NC(=O)/C=C/c2ccc([N+](=O)[O-])o2)cc1" was 7.27 µM

Lab note: measured TGI of "C=CCN1C(=O)CS/C1=N\NC(=O)CSc1nc2ccccc2c(=O)n1CC" was > 100 µM

Lab note: measured TGI of "COc1ccc2[nH]c3c(O)c(-c4c(C)cc5c([nH]c6ccc(OC)cc65)c4O)c(C)cc3c2c1" was 8.35 µM

Lab note: measured TGI of "Cc1ccc(S(=O)(=O)NNC(=O)Nc2ccc([N+](=O)[O-])cc2)cc1" was > 100 µM
